target.or.system: Human CD33 ECD-HSA (human)
Sequence (chain, as listed by the source): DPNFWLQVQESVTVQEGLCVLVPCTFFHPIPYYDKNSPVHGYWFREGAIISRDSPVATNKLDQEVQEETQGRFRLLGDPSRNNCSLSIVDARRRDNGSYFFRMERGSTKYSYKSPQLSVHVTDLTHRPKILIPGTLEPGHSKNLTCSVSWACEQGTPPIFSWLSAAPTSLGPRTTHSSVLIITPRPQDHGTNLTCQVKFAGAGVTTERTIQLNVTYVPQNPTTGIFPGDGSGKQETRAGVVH
method.description: ProteOn SPR, mAb captured by anti-human Fc, 1:1 Langmuir fit
Assignment: determine reported kon for the given binders.
Give bare numbers, in M⁻¹ s⁻¹.

binder: C33B96 (antibody, IgG1, V domains shown, huIgG1 F405L; also called C33F101; C33H99/C33L37) VH: EVQLVESGGGLVQPGGSLRLSCAASGFTFSSYWMTWVRPAPGKGLEWVANIKRDGGEKYYVDSVKGRFTISRDNAANSLYLQMNSLRVEDTAVYYCARPFYDHFDYWGQGTLVTVSS VL: SYVLTQPPSVAVAPGQTARITCGGSNIGKISVHWYQQKAGQAPVLVVHDDRARPSGIPERLSGSNSGTTATLTISRVEVGDEADYYCQVWNSSSVHPVFGGGTKLTVL
kon (M⁻¹ s⁻¹): 226000

Turning now to a further record.
// kon lookup, key: C33B46 (antibody, IgG1, V domains shown, huIgG1 F405L; also called C33F51; C33H108/C33L74) VH: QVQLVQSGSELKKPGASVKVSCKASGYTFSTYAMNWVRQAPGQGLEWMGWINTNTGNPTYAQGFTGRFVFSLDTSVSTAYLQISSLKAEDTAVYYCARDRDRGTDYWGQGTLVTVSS VL: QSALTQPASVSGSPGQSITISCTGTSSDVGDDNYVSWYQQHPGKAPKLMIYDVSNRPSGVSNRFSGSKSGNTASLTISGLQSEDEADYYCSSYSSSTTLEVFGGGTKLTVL
1.45e+06
